Each entry below lists one item and its recorded SPOT peptide array binding signal intensity value.
Biological target: CaSla1-D1-D2
Assay: SPOT peptide array binding signal intensity (averaged, normalized) (arbitrary units (background-subtracted, floor 0; scale differs between SH3 domains)); higher = stronger binding of the SH3 domain to the peptide

Query :: Param item = `MKRSRPSRSIPYTTP` ; retrieve measured SPOT peptide array binding signal intensity.
Result :: 60

Query :: Ok, now `VGFRLALKFPSRITG`
Result :: 108

Query :: Ok, now `NLDRSKISLPDFDDE`
Result :: ≤ 0

Query :: Ok, now `ATKSASPTLPTRRSR`
Result :: 1430

Query :: Ok, now `DDEDVPPQLPTRTKS`
Result :: ≤ 0

Query :: Ok, now `NLPKRKPPKLQGPFS`
Result :: 48

Query :: Ok, now `PALPSLPPPPLLNVD`
Result :: ≤ 0
